Experiment: Selectivity index, ratio of GI50 for human MCF7 cells to MIC90 for Mycobacterium bovis BCG ATCC 35743 active stage
Format: toxicity, cell-based
Details: read-out: Selectivity Index
Decision: selectivity ratio >= 5 yields Fulfilled, all other cases yield Not fulfilled.

Has C/C(=N\Nc1nc(-c2ccc(F)cc2)cs1)c1sc(-c2ccccc2)nc1C a recorded selectivity ratio greater than or equal to 5?
Not fulfilled

Has C/C(=N\Nc1nc(-c2ccc(Br)cc2)cs1)c1sc(C)nc1C a recorded selectivity ratio greater than or equal to 5?
Fulfilled

Has C/C(=N\Nc1nc(-c2ccccc2)cs1)c1sc(C)nc1C a recorded selectivity ratio greater than or equal to 5?
Not fulfilled

Has C/C(=N\Nc1nc(-c2ccc(F)cc2)cs1)c1sc(C)nc1C a recorded selectivity ratio greater than or equal to 5?
Fulfilled

Has C/C(=N\Nc1nc(-c2ccc(C)cc2)cs1)c1sc(C)nc1C a recorded selectivity ratio greater than or equal to 5?
Not fulfilled
